- SYSTEM_TESTED: human TLR9 (Homo sapiens)
- Construct: endogenous in cells; host or cells: primary human B cells (CD19 microbeads) from buffy coats of healthy donors
- Sequence (Q9NR96 26-1032): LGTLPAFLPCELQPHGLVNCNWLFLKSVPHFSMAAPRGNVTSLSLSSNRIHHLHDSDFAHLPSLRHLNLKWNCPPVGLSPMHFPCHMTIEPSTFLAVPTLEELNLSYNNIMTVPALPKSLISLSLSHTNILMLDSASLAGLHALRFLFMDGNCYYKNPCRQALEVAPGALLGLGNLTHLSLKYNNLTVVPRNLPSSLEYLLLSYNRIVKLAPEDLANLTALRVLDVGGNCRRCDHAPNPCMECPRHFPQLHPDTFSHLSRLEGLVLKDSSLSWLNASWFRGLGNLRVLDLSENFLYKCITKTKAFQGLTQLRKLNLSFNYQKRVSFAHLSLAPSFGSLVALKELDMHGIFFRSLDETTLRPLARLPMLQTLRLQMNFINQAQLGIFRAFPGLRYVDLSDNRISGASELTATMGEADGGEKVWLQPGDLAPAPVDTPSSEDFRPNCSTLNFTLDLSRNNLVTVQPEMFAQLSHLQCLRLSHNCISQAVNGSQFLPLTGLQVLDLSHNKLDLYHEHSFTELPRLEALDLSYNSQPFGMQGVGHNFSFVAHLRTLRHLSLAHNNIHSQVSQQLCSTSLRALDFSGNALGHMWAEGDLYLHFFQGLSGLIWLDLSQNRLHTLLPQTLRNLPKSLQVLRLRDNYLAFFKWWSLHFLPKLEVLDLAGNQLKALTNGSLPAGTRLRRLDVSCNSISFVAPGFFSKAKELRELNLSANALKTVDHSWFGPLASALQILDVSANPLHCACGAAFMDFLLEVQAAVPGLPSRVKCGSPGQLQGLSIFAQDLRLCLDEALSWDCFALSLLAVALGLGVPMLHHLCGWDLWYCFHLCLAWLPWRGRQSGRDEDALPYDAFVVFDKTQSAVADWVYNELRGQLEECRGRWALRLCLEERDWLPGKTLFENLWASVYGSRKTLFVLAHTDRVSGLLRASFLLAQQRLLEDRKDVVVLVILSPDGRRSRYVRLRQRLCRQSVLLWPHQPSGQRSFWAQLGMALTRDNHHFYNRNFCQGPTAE
- TEST_METHOD_NOTES: Inhibition of human TLR9 in human B cells (IL-6 ELISA)
- Assay type: cell-based
- CONDITION: human B cells, agonist 1018 ISS 1 μM, IL-6, 48 hours; expanded dilution series about 0.001 to 30 μM; read-out: Human TLR9 IC50, expanded dilution series
Lab note: anything with IC50 below 10 nM is marked TRUE; values at 10 nM or higher are marked FALSE.

Observe how each entry below is paired with its result.
MOLECULE	QUALITATIVE_LABEL
Cc1ccc(-n2nc3c(N4CCC(C)(C(=O)NCCCN(C)C)CC4)nnc(C)c3c2C)cc1 [compound 20]	FALSE
Cc1ccc(-n2nc3c(N4CCC(C(=O)N5CCC(CN(C)C)C5)CC4)nnc(C)c3c2C)cc1 (centres unmarked) [compound 45]	FALSE
Cc1ccc(-n2cc3cncc(N4CCC(C(=O)NCCCN(C)C)CC4)c3n2)cc1 [Compound No. 55]	TRUE

Then there is this molecule:
Does CCN(CC)C1CCN(C(=O)C2CCN(c3nnc(C)c4c(C)n(-c5ccc(C)cc5)nc34)CC2)CC1 [compound 43] have IC50 strictly under 10 nM?
FALSE
